pKi: −log10 of the molar value.
Lab note: pKi readings collected with Plasminogen (Homo sapiens) for the following compounds.
QUANTITY_MEASURED: pKi

1. N=C(N)c1ccc(Cn2ccc3cc(C(=N)N)ccc32)cc1 = 4.22
2. N=C(N)c1ccc2nc(Cc3nc4ccc(C(=N)N)cc4[nH]3)[nH]c2c1 = 5.58
3. N=C(N)c1cccc(Cn2ccc3cc(C(=N)N)ccc32)c1 = 4.18
4. N=C(N)c1ccc2c(ccn2Cc2ccccc2)c1 = 3.07
5. N=C(N)c1ccc2[nH]ccc2c1 = 3.95
6. N=C(N)c1ccc2c(ccn2Cc2ccc([N+](=O)[O-])cc2N)c1 = 4.00

(a) CCC(=O)c1cc2ccc(C(=N)N)cc2[nH]1
(b) N=C(N)c1ccc(Cn2ccc3ccccc32)cc1
// max by pKi over [ a , b ] When you have decided, please share the label of that item.
a

---

target: Urokinase-type plasminogen activator (Homo sapiens, UniProt P00749); assay: Inhibition constant against Urokinase
pKi: −log10 of the molar value.
QUANTITY_MEASURED: pKi

Solved cases below.
1. N=C(N)c1ccc(OCCCCCOc2ccc(-c3nc4cc(C(=N)N)ccc4[nH]3)cc2)cc1 = 5.10
2. CCC(=O)c1cc2ccc(C(=N)N)cc2[nH]1 = 4.39

(P) N=C(N)c1ccc(OCCCOc2ccc(-c3nc4ccc(C(=N)N)cc4[nH]3)cc2)cc1
(Q) N=C(N)c1ccc2c(C(=O)c3ccccc3)c[nH]c2c1
Identify the entry with the smaller pKi: P or Q . When you have decided, please share the label of that item.
Q
(Q: 3.57, P: 4.75)

---

Lab note: Ki readings collected with Plasminogen (Homo sapiens, UniProt P00747) for the following compounds.
Sequence (P00747 97-580 limits assumed): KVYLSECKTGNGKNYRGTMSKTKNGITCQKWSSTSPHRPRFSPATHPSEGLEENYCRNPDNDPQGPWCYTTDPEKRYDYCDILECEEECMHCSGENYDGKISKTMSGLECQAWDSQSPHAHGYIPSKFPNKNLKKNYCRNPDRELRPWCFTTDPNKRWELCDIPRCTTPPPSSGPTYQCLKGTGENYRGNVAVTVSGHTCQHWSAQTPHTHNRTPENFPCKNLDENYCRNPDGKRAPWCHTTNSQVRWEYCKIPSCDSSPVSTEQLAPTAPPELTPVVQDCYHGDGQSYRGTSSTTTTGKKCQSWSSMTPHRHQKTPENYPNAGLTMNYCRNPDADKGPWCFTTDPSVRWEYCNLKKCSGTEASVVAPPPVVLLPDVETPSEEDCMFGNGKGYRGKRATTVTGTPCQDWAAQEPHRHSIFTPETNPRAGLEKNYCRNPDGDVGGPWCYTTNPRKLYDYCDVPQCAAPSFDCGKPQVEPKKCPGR
Sequence (P00747 581-810 limits assumed): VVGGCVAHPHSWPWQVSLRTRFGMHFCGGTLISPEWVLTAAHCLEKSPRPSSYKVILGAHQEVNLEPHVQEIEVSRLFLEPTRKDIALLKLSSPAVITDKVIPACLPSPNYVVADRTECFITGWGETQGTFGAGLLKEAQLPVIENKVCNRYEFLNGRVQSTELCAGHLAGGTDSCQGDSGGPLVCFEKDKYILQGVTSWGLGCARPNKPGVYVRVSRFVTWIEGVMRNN

1) N=C(N)c1ccc2c(ccn2Cc2cccc([N+](=O)[O-])c2)c1 = > 100 µM
2) N=C(N)c1ccc(Cn2ccc3cc([N+](=O)[O-])ccc32)cc1 = > 400 µM
3) N=C(N)c1ccc2c(C(=O)c3ccccc3)c[nH]c2c1 = > 200 µM

The compound "Cn1ccc2cc(C(=N)N)ccc21" on Plasminogen (Homo sapiens, UniProt P00747): Ki was > 1000 µM

The compound "CCn1ccc2cc(C(=N)N)ccc21" on Plasminogen (Homo sapiens, UniProt P00747): Ki was > 400 µM
